Data origin, for the record: PubChem BioAssay AID2156

# assayed_system: Potassium voltage-gated channel subfamily KQT member 2 (Rattus norvegicus) (UniProt O88943)
# Sequence (O88943 whole entry, looked up): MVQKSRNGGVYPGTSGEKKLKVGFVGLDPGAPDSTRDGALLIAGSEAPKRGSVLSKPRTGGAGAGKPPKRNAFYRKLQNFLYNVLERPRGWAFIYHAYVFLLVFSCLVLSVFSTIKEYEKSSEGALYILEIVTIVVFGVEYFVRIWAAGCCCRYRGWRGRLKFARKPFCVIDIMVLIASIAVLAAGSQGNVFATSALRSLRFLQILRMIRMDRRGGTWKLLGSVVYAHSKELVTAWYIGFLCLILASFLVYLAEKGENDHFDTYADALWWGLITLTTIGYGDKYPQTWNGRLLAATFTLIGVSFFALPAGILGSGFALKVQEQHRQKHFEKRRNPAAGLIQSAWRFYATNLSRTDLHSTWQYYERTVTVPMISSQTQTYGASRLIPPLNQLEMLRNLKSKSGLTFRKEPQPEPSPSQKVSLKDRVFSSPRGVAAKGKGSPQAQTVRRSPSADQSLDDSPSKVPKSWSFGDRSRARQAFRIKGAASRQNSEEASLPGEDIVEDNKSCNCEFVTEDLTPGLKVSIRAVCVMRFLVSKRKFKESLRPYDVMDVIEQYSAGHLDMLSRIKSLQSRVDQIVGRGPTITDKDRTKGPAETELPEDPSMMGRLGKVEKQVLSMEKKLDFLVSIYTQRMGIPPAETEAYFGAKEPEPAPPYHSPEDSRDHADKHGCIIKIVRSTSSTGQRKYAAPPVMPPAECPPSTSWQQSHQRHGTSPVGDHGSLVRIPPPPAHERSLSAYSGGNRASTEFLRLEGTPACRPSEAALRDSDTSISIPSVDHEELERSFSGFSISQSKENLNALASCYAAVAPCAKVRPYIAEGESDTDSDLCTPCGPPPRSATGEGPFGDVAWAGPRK
# method_description: rat KCNQ2 potassium channel inhibitors, primary screen, cell-based, CHO-K1, FluxOR thallium flux, B-score (AID 2156)
# run_conditions: 20 min, at 10 µM; active compounds read low
Hit rate of the full screen: of about 310,000 compounds, about 3,400 (1.1%) were called active. The list comes from a sample in which actives are over-represented; it also holds close analogues and randomly drawn compounds.
reported_property: B-score

Examples from the recorded data:
CCOc1ccc(NC(=O)N(CCC(C)C)C(C)c2ccco2)cc1 (stereo not given) = -2.46 (inactive)
CCOc1cc(N2CCOCC2)c(OCC)cc1NC(=O)COc1cccc(Cl)c1 = inactive
Cc1cc(Nc2ccc(Br)cc2)nc2ccccc12 = inactive
Cc1ccc2c(c1)N(CC(=O)N(Cc1ccccn1)Cc1ccco1)C(=O)C(C(C)C)O2 (stereo not given) = -7.54 (active)
CCN(CC)S(=O)(=O)c1ccc(N2CCOCC2)c(C(=O)O)c1 = inactive

Task: Name the reported B-score value associated with the compound O=C(NCc1ccccc1)C(c1ccccc1)N(C(=O)c1csnn1)c1ccc(F)cc1 (stereo not given)
Output: -1.89 (inactive)

Task: Then this compound: COc1ccc(-c2nc(N)ncc2-c2ccc(Cl)cc2)c(O)c1
Output: -0.21 (inactive)

Task: Then this compound: COc1ccc(-c2csc3ncnc(N4CCN(S(=O)(=O)c5cccc(F)c5)CC4)c23)cc1
Output: -2.13 (inactive)

Task: Then this compound: Cc1ccc(NC(=O)NC(=O)N(C2CCCCC2)S(=O)(=O)c2ccccc2)cc1
Output: -1.57 (inactive)

Task: Then this compound: O=[N+]([O-])c1cc(Cl)cc(/C=N/NC(=S)Nc2cc(S(=O)(=O)N3CCOCC3)ccc2Cl)c1O
Output: -8.14 (active)

----------
# assayed_system: Potassium voltage-gated channel subfamily KQT member 2 (Rattus norvegicus) (UniProt O88943)
# method_description: rat KCNQ2 potassium channel inhibitors, primary screen, cell-based, CHO-K1, FluxOR thallium flux, B-score (AID 2156)
# run_conditions: 20 min, at 10 µM
Out of some 310,000 compounds screened, about 3,400 (1.1%) were called active.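 Rule for the calls: active = fluorescence ratio B-score at most minus 3 library SDs, with starting brightness B-score within 2 library SDs (cut at about -5.5 in these data); inactive = the rest, inconclusive results apart.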 This is one part of a sample in which actives are shown more often than they occur.
Mark one answer only. Choices: true = active, false = inactive

Task: What is the recorded call for this molecule in the test? Cc1ccc(S(=O)(=O)N(C)c2ccc(OCC(=O)OCC(=O)N(CC#N)c3ccccc3)cc2)cc1
Output: false

Task: Then this molecule: Cc1ccc(S(=O)(=O)N2CCN(C(=O)c3ccccc3-c3nc4ccccc4s3)CC2)c(C)c1
Output: false

Task: Then this molecule: CC(=O)c1c(C)[nH]c(C(=O)CN2C(=O)NC(C)(C)C2=O)c1C
Output: false

Task: Then this molecule: O=C(COc1coc(CN2CCN(c3ccccc3F)CC2)cc1=O)N1CCc2ccccc21
Output: false

Task: Then this molecule: CCOc1ccc(NC(=O)COc2ccc(C(=O)NC3CCCc4ccccc43)cc2OC)cc1 (stereo not given)
Output: false

Task: Then this molecule: O=C(CN1CCN(c2ccc(O)cc2)CC1)NC1CCCc2ccccc21 (stereo not given)
Output: false

Task: Then this molecule: COc1ccc(NC(=O)CN(C)C(=O)c2ccc(NC3CC3)c([N+](=O)[O-])c2)cc1
Output: false

Task: Then this molecule: COc1ccc(CN(C)C(C)C(=O)NC2CCCc3ccccc32)cc1 (stereo not given)
Output: true

Task: Then this molecule: O=C(COc1ccccc1Cl)Nc1ccccc1C(=O)NC1CC1
Output: false

Task: Then this molecule: CCOc1ccc(N(CC(=O)NCC2CCCO2)S(=O)(=O)c2ccc(C)cc2)cc1 (stereo not given)
Output: false
